Entry source: patent US20140308287A1

- tgt: T1, human ErbB3-Fc (R&D Systems) (human, UniProt P21860 20-643)
- T1 construct: Bought protein; also called wild-type ErbB3-Fc fusion; immobilized ErbB3; not shown: Fc part of the bought fusion protein; not described
- protocol.details: ELISA on ErbB3-Fc, soluble monovalent Sab (Example 42)
Recorded EC50 values for a group of binders are listed next.
Give just the number in pM; leave the unit off.

{"binder": "2995-A12 (other) VH: EVQLLESGGGLVQPGGSLRLSCAASGFTFSDYWMNWVRQAPGKGLEWVANISGGGGYIYYADSVKGRFTISRDNSKNTLYLQMNSLRAEDTAVYYCAKDNFILLNSWFDYWGQGTLVTVSS surrogate light: QPVLHQPPAMSSALGTTIRLTCTLRNDHDIGVYSVYWYQQRPGHPPRFLLRYFSQSDKSQGPQVPPRFSGSKDVARNRGYLSISELQPEDEAMYYCAMGARSSVTHVFGSGTQLTVLSQPKATPSVTLFPPSSEELQANKATLVCLMNDFYPGILTVTWKADGTPITQGVEMTTPSKQSNNKYAASSYLSLTPEQWRSRRSYSCQVMHEGSTVEKTVAPAECS", "measurement.units": "pM", "numeric.readout": 10}

Input 2995-C02 (other, copies: 1 + 1) VH: EVQLLESGGGLVQPGGSLRLSCAASGFTFSNYWMNWVRQAPGKGLEWVANISSGGSYTYYADSVKGRFTISRDNSKNTLYLQMNSLRAEDTAVYYCAKDNFILLNSWFDYWGQGTLVTVSS surrogate light: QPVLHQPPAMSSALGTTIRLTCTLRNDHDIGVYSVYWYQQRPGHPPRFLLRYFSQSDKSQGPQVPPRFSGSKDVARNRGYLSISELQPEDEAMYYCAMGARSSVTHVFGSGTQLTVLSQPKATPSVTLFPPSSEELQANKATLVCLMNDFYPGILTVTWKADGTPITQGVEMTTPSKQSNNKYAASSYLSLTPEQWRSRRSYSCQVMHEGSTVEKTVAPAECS . Output EC50: 28

Input 2995-H03 (other) VH: EVQLLESGGGLVQPGGSLRLSCAASGFTFSDYWMHWVRQAPGKGLEWVAVISGGGAYKYYADSVKGRFTISRDNSKNTLYLQMNSLRAEDTAVYYCAKDNFILLNSWFDYWGQGTLVTVSS light: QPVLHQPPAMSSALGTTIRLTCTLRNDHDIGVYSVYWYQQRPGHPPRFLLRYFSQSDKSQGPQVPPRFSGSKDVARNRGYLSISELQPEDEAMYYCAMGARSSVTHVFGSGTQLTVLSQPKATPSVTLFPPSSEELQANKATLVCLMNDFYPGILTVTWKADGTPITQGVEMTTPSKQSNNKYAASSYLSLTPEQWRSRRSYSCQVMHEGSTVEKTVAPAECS . Output EC50: 26

Input 2995-C07 (other) VH: EVQLLESGGGLVQPGGSLRLSCAASGFTFSNYWMHWVRQAPGKGLEWVALISSGSTYISYADSVKGRFTISRDNSKNTLYLQMNSLRAEDTAVYYCAKDNFILLNSWLDYWGQGTLVTVSS light: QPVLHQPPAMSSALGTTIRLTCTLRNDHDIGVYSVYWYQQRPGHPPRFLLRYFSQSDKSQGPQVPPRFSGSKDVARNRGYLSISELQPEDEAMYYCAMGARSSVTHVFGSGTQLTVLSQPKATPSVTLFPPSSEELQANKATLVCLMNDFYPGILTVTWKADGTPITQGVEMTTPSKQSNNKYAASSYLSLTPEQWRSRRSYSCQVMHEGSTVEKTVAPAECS . Output EC50: 56
